tested on: JEG-Tox cells; assay: Neutral Red cell viability assay on JEG-Tox cells, 72 h; format: cell-based, human; details: Table 4 summary, 72 h; loss of viability >= 30% counted as cytotoxic
Provide the recorded cytotoxicity (concentration) for the entries that follow.
The figure you give is taken to be in µM; do not add the unit.

Fill in the blank: the reported cytotoxicity (concentration) of CC12CCC(/C(=C/c3ccccc3)C1=O)C2(C)C (stereo not shown) is ____.
50

Fill in the blank: the reported cytotoxicity (concentration) of CCCCOC(=O)c1ccccc1C(=O)OCc1ccccc1 [benzyl butyl phthalate] is ____.
50

Fill in the blank: the reported cytotoxicity (concentration) of CCCCC(CC)COC(=O)c1ccccc1C(=O)OCC(CC)CCCC (stereo not shown) [DEHP, Di(2-ethylhexyl)phtalate] is ____.
50

Fill in the blank: the reported cytotoxicity (concentration) of Oc1cc(Cl)ccc1Oc1ccc(Cl)cc1Cl is ____.
10

Fill in the blank: the reported cytotoxicity (concentration) of CC/C(=C(/CC)c1ccc(O)cc1)c1ccc(O)cc1 is ____.
15

* * *

tested on: caspase-1; assay: Caspase 1 activity, Caspase-Glo 1 Inflammasome Assay; assay type: cell-based, human; conditions: Table 4 summary, 72 h
measured-parameter: Casp-1 activation (concentration)

Record excerpt, results attached:
compound="Oc1cc(Cl)ccc1Oc1ccc(Cl)cc1Cl [triclosan]" system_name=caspase-1 measured_parameter="Casp-1 activation (concentration)" readout_value=No
compound="CCCCOC(=O)c1ccccc1C(=O)OCc1ccccc1 [benzyl butyl phthalate]" system_name=caspase-1 measured_parameter="Casp-1 activation (concentration)" readout_value=no
compound="CCCCOC(=O)c1ccccc1C(=O)OCCCC [dibutyl phthalate]" system_name=caspase-1 measured_parameter="Casp-1 activation (concentration)" readout_value=no
compound="CC12CCC(/C(=C/c3ccccc3)C1=O)C2(C)C (centres unmarked) [3-benzylidene camphor]" system_name=caspase-1 measured_parameter="Casp-1 activation (concentration)" readout_value=no

Please examine the following record next.
Test system caspase-1; read-out Casp-1 activation (concentration); what value for CCCCC(CC)COC(=O)c1ccccc1C(=O)OCC(CC)CCCC (centres unmarked) [DEHP, Di(2-ethylhexyl)phtalate] ?
no
